# measured-target: PAF receptor (Oryctolagus cuniculus, UniProt G1TEI7)
# Construct: Cell membrane fraction of rabbit platelets was prepared; from tissue; host or cells: rabbit platelets (cell membrane fraction)
# Sequence (G1TEI7 1-342): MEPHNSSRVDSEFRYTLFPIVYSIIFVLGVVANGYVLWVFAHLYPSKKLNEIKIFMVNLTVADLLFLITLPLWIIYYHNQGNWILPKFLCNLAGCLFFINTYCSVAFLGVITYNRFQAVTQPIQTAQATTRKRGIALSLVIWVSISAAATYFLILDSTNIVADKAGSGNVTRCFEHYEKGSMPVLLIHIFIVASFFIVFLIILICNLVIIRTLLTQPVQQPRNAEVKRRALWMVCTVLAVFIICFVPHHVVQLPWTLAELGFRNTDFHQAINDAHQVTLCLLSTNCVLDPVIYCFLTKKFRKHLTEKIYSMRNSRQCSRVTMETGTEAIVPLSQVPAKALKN
# test: Binding test using [3H]-PAF (PAF receptor binding test)
# Parameters: species or system rabbit
# particulars: rabbit platelet membrane fraction, [3H]-PAF 0.4 nM, 25°C, 60 minutes; read-out: Receptor Binding Inhibition IC50 (converted)
Note to self: use YES only for IC50 readings below 200 nM; a reading exactly at 200 nM still gets NO.

[[record]]
compound = "Cc1nnc2n1-c1ccccc1N(CCCN1CCC(=C(c3ccccc3)c3ccc(C(F)(F)F)cc3)CC1)C2"
class_name = "YES"

[[record]]
compound = "Cc1nnc2n1-c1ccccc1N(CCCN1CCC(=C(c3cccc(Cl)c3)c3cccc(Cl)c3)CC1)C2"
class_name = "YES"

[[record]]
compound = "Cc1nnc2n1-c1ccccc1N(CCCN1CCC(c3noc4ccccc34)CC1)C2"
class_name = "NO"

[[record]]
compound = "Cc1nnc2n1-c1ccccc1N(CCCN1CCC(=C(c3cccs3)c3cccs3)CC1)C2"
class_name = "NO"

[[record]]
compound = "CCc1nnc2n1-c1ccccc1N(CCCN1CCC(c3c[nH]c4ccccc34)CC1)C2"
class_name = "NO"

[[record]]
compound = "Cc1nnc2n1-c1ccccc1N(CCCN1CCN(C(c3ccc(F)cc3)c3ccc(F)cc3)CC1)C2"
class_name = "NO"

[[record]]
compound = "Cc1nnc2n1-c1ccccc1N(CCCN1CCC(C(=O)c3ccccc3)CC1)C2"
class_name = "NO"

[[record]]
compound = "Cc1nnc2n1-c1ccccc1N(CCCN1CCC(c3c[nH]c4ccc(F)cc34)CC1)C2"
class_name = "NO"

[[record]]
compound = "Cc1nnc2n1-c1ccccc1N(CCCN1CCC(=C(c3ccccc3)c3ccccc3)CC1)C2"
class_name = "NO"

[[record]]
compound = "Cc1nnc2n1-c1ccccc1N(CCCN1CCC(c3c[nH]c4ccc(Br)cc34)CC1)C2"
class_name = "NO"

[[record]]
compound = "Cc1nnc2n1-c1ccccc1N(CCCN1CCC(n3c(=O)[nH]c4ccccc43)CC1)C2"
class_name = "NO"

[[record]]
compound = "COc1cccc(C(O)(c2cccc(OC)c2)C2CCN(CCCN3Cc4nnc(C)n4-c4ccccc43)CC2)c1"
class_name = "YES"

[[record]]
compound = "Cc1cccc(C(O)(c2ccccc2)C2CCN(CCCN3Cc4nnc(C)n4-c4ccccc43)CC2)c1 (stereo not shown)"
class_name = "YES"

[[record]]
compound = "Cc1nnc2n(CCCN3CCC(OC(c4ccccc4)c4ccccc4)CC3)c3ccccc3n12"
class_name = "YES"

[[record]]
compound = "Cc1cccc(C(=C2CCN(CCCN3Cc4nnc(C)n4-c4ccccc43)CC2)c2cccc(C)c2)c1"
class_name = "YES"

[[record]]
compound = "Cc1cccc(C(O)(c2cccc(C)c2)C2CCN(CCCN3Cc4nnc(C)n4-c4ccccc43)CC2)c1"
class_name = "YES"

[[record]]
compound = "Cc1nnc2n1-c1ccccc1N(CCCN1CCC(=C(c3ccccc3)c3cccs3)CC1)C2"
class_name = "NO"

[[record]]
compound = "Cc1nnc2n(CCCN3CCC(=C4c5ccccc5C=Cc5ccccc54)CC3)c3ccccc3n12"
class_name = "NO"

[[record]]
compound = "Cc1nnc2n(CCN3CCN(C(c4ccccc4)c4ccccc4)CC3)c3ccccc3n12"
class_name = "NO"

[[record]]
compound = "CCc1nnc2n(CCCN3CCC(c4c[nH]c5ccccc45)CC3)c3ccccc3n12"
class_name = "NO"

[[record]]
compound = "Cc1nnc2c(=O)n(CCCN3CCC(=C(c4ccccc4)c4ccccc4)CC3)c3ccccc3n12"
class_name = "NO"

[[record]]
compound = "Cc1nnc2n1-c1ccccc1N(CCCN1CCC(c3c[nH]c4ccccc34)CC1)C2"
class_name = "NO"

[[record]]
compound = "Cc1nnc2n(CCCN3CCC(c4c[nH]c5ccccc45)CC3)c3ccccc3n12.O=C(O)/C=C/C(=O)O"
class_name = "NO"

[[record]]
compound = "COc1ccc(C(O)(c2ccccc2)C2CCN(CCCN3Cc4nnc(C)n4-c4ccccc43)CC2)cc1OC (stereo not shown)"
class_name = "YES"

[[record]]
compound = "Cc1nnc2n1-c1ccccc1N(CCCN1CCC(C(O)(c3cccs3)c3cccs3)CC1)C2"
class_name = "YES"

[[record]]
compound = "Cc1nnc2n(CCCN3CCC(C(O)(c4ccc(F)cc4)c4ccc(F)cc4)CC3)c3ccccc3n12"
class_name = "YES"

[[record]]
compound = "Cc1nnc2n1-c1ccccc1N(CCCN1CCC(=C3c4ccccc4C=Cc4ccccc43)CC1)C2"
class_name = "YES"

[[record]]
compound = "Cc1nnc2n1-c1ccccc1N(CCCN1CCC(C(O)(c3ccc(F)cc3)c3ccc(F)cc3)CC1)C2C (stereo not shown)"
class_name = "NO"

[[record]]
compound = "Cc1nnc2n1-c1ccccc1N(CCCN1CCC(C(O)(c3ccccc3)c3ccc(N(C)C)cc3)CC1)C2 (stereo not shown)"
class_name = "YES"

[[record]]
compound = "COc1cccc(C(=C2CCN(CCCN3Cc4nnc(C)n4-c4ccccc43)CC2)c2ccccc2)c1"
class_name = "YES"


###

# Test system: passive cutaneous anaphylaxis (PCA)
# test: Test for antiallergic action: rat passive cutaneous anaphylaxis (PCA) reaction
# Format: in vivo
# particulars: rats, oral, 50 mg/kg in olive oil, 1 hour before antigen challenge, read-out: Inhibition Rate (%) Anti-PCA
Structures can show the parent of a compound that is named as a salt.
Assign 1 to entries whose inhibition at 50 mg/kg meets or exceeds 60%; assign 0 to the rest.

[[record]]
compound = "Cc1nnc2c(=O)n(CCCN3CCC(=C(c4ccccc4)c4ccccc4)CC3)c3ccccc3n12"
measured_target = "passive cutaneous anaphylaxis (PCA)"
class_name = 0

[[record]]
compound = "Cc1nnc2n1-c1ccccc1N(CCCN1CCC(c3c[nH]c4ccccc34)CC1)C2"
measured_target = "passive cutaneous anaphylaxis (PCA)"
class_name = 0

[[record]]
compound = "Cc1nnc2n1-c1ccccc1N(CCCN1CCN(C(c3ccccc3)c3ccc(Cl)cc3)CC1)CC2 (stereo not shown)"
measured_target = "passive cutaneous anaphylaxis (PCA)"
class_name = 1

[[record]]
compound = "Cc1nnc2n(CCCN3CCC(C(O)(c4ccc(F)cc4)c4ccc(F)cc4)CC3)c3ccccc3n12"
measured_target = "passive cutaneous anaphylaxis (PCA)"
class_name = 0

[[record]]
compound = "Cc1nnc2n(CCCN3CCC(c4c[nH]c5ccccc45)CC3)c3ccccc3n12.O=C(O)/C=C/C(=O)O"
measured_target = "passive cutaneous anaphylaxis (PCA)"
class_name = 1

[[record]]
compound = "CCc1nnc2n1-c1ccccc1N(CCCN1CCC(c3c[nH]c4ccccc34)CC1)C2"
measured_target = "passive cutaneous anaphylaxis (PCA)"
class_name = 1

[[record]]
compound = "Cc1nnc2n1-c1ccccc1N(CCCN1CCC(C(O)(c3ccc(F)cc3)c3ccc(F)cc3)CC1)C2"
measured_target = "passive cutaneous anaphylaxis (PCA)"
class_name = 0

[[record]]
compound = "Cc1nnc2n(CCCN3CCN(C(c4ccccc4)c4ccccc4)CC3)c3ccccc3n12 [Compound 189, dihydrochloride]"
measured_target = "passive cutaneous anaphylaxis (PCA)"
class_name = 0

[[record]]
compound = "Cc1nnc2n1-c1ccccc1N(CCCN1CCC(=C(c3ccccc3)c3ccccc3)CC1)C2"
measured_target = "passive cutaneous anaphylaxis (PCA)"
class_name = 1

[[record]]
compound = "Cc1nnc2n1-c1ccccc1N(CCCN1CCN(C(c3ccc(F)cc3)c3ccc(F)cc3)CC1)C2"
measured_target = "passive cutaneous anaphylaxis (PCA)"
class_name = 0


###

Each item that follows carries a reported IC50.
# measured-target: PAF receptor (Oryctolagus cuniculus, UniProt G1TEI7)
# Construct: Cell membrane fraction of rabbit platelets was prepared; from tissue; host or cells: rabbit platelets (cell membrane fraction)
# test: Binding test using [3H]-PAF (PAF receptor binding test)
# Set-up: species or system rabbit
# particulars: rabbit platelet membrane fraction, [3H]-PAF 0.4 nM, 25°C, 60 minutes; read-out: Receptor Binding Inhibition IC50 (converted)
readout-type: IC50 (nM)

[[record]]
smiles = "Cc1nnc2n(CCCN3CCC(C(O)(c4ccccc4)c4ccccc4)CC3)c3ccccc3n12"
quantity_unit = "nM"
result = 353

[[record]]
smiles = "Cc1nnc2n(CCCN3CCC(=C(c4ccccc4)c4ccccc4)CC3)c3ccccc3n12"
quantity_unit = "nM"
result = 294

[[record]]
smiles = "Cc1nnc2n(CCCN3CCC(c4c[nH]c5ccccc45)CC3)c3cc(Cl)ccc3n12"
quantity_unit = "nM"
result = 2910

[[record]]
smiles = "Cc1nnc2n1-c1ccccc1N(CCCN1CCC(=C(c3ccccc3)c3cccc(Cl)c3)CC1)C2"
quantity_unit = "nM"
result = 178


###

# measured-target: rabbit platelets (Oryctolagus cuniculus)
# Sequence (G1TEI7 1-342): as above
# test: in vitro platelet agglutination inhibition test (PAF-induced)
# Format: cell-based
# particulars: rabbit platelet-rich plasma, PAF final concentration 10 ng/ml, 37°C; read-out: PAF-Induced Platelet Aggregation IC50 (converted)
Structures can show the parent of a compound that is named as a salt.
Note to self: use met only for IC50 readings below 200 nM; a reading exactly at 200 nM still gets not met.

[[record]]
compound = "Cc1cccc(C(=C2CCN(CCCN3Cc4nnc(C)n4-c4ccccc43)CC2)c2ccccc2)c1 [Compound 160]"
class_name = "met"

[[record]]
compound = "COc1cccc(C(O)(c2cccc(OC)c2)C2CCN(CCCN3Cc4nnc(C)n4-c4ccccc43)CC2)c1 [Compound 135]"
class_name = "not met"

[[record]]
compound = "Cc1nnc2n1-c1ccccc1N(CCCN1CCC(=C(c3ccccc3)c3ccc(Cl)cc3)CC1)C2 [Compound 149]"
class_name = "not met"

[[record]]
compound = "Cc1nnc2n1-c1ccccc1N(CCCN1CCC(C(O)(c3ccccc3)c3ccc(N(C)C)cc3)CC1)C2 (stereo not shown) [Compound 131]"
class_name = "not met"

[[record]]
compound = "Cc1nnc2n1-c1ccccc1N(CCCN1CCC(=C3c4ccccc4CCc4ccccc43)CC1)C2 [Compound 87]"
class_name = "not met"

[[record]]
compound = "Cc1nnc2n1-c1ccccc1N(CCCN1CCC(c3noc4ccccc34)CC1)C2 [Compound 80]"
class_name = "met"

[[record]]
compound = "Cc1nnc2n(CCCN3CCN(C(c4ccccc4)c4ccccc4)CC3)c3ccccc3n12 [Compound 189, dihydrochloride]"
class_name = "not met"

